- Tested on: A549
- Assay notes: Cytotoxicity against human A549 cells after 72 hrs by sulforhodamine B assay
- Assay type: functional, cell-based
- Measurement context: A549, 72 h

# Molecule, IC50
measured = [
    ("OCc1ccc(-c2ccc3cc(O)ccc3c2)cc1", "> 20 µM"),
    ("COC(=O)c1ccc(C)c(-c2ccc3cc(O)ccc3c2)c1", "5 µM"),
    ("COC(=O)c1cc(-c2ccc3cc(OC)ccc3c2)ccc1O", "> 20 µM"),
    ("COc1ccc2cc(-c3ccc(CO)cc3)ccc2c1", "7.9 µM"),
    ("COC(=O)Cc1cc(-c2ccc3cc(OC)ccc3c2)ccc1O", "> 20 µM"),
    ("CC(O)c1ccc(-c2ccc3cc(O)ccc3c2)cc1 (stereo not given)", "19.9 µM"),
    ("COC(=O)Cc1ccc(-c2ccc3cc(OC)ccc3c2)cc1", "> 20 µM"),
    ("COc1ccc2cc(-c3ccc(C(F)(F)F)cc3)ccc2c1", "> 20 µM"),
    ("COc1ccc2cc(-c3ccc(N)cc3)ccc2c1", "> 20 µM"),
    ("O=C(O)c1cc(-c2ccc3cc(O)ccc3c2)ccc1O", "> 20 µM"),
]
